# study-system: recombinant PRL-2 (Homo sapiens, UniProt Q12974)
# Construct: 6xHis (N, cleaved yes); made in house; host or cells: E. coli One Shot BL21 Star
# Sequence (Q12974 1-167): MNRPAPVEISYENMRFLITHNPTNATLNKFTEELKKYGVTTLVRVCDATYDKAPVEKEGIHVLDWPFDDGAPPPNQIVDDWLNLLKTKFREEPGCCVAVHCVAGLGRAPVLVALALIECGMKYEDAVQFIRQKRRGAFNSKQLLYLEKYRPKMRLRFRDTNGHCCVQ
# protocol-description: In vitro phosphatase assay (DiFMUP hydrolysis), PRL-2;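 further: PRL-2 activity read as DiFMUP hydrolysis after 20 min at room temperature with drug, enzyme first pre-reduced at 4 °C for 20 min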
# Type: biochemical
# test-context: FDA-approved drug screen; compared to DMSO
endpoint-name: % Phosphatase Activity (compared to DMSO) PRL-2 (%)
Write down the numeric answer in % and omit the unit.

Identify the reported % Phosphatase Activity (compared to DMSO) PRL-2 for the following entry. COc1ccc2[nH]cc(CCNC(C)=O)c2c1
108

Identify the reported % Phosphatase Activity (compared to DMSO) PRL-2 for the following entry. CC1(C)S[C@@H]2[C@H](NC(=O)[C@H](N)c3ccccc3)C(=O)N2[C@H]1C(=O)O [Ampicillin Trihydrate]
106

Identify the reported % Phosphatase Activity (compared to DMSO) PRL-2 for the following entry. C[C@]1(O)C[C@@H](c2nc(-c3ccc4ccc(-c5ccccc5)nc4c3)c3c(N)nccn32)C1
96

Hello, the source for this data is paper PMC8119466, in case you need it.
